Biological target: Serine/threonine-protein kinase TBK1 (Homo sapiens) (UniProt Q9UHD2);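 further: values are the mean TBK1 inhibition, taken from the GSK PKIS screening data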
Sequence (whole entry): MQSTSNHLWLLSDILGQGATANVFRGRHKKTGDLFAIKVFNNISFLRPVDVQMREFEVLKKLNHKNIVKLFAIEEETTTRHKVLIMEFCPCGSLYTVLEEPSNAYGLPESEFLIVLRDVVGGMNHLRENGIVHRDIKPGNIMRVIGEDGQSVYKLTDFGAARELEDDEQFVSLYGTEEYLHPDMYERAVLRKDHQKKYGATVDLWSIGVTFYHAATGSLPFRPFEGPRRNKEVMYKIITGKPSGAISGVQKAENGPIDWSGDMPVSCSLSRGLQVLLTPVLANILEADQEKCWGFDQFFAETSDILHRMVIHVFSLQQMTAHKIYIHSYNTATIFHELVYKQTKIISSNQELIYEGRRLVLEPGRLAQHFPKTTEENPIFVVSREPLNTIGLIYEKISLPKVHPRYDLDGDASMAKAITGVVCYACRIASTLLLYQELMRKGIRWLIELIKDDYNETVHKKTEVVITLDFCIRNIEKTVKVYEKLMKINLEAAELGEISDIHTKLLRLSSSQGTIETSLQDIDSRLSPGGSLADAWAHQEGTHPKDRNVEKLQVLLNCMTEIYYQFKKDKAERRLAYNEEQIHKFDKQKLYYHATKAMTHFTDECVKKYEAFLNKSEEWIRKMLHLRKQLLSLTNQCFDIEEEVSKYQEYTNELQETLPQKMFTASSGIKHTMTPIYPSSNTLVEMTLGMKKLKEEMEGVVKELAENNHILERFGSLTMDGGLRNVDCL
Conditions: at 0.1 µM

molecule	assayedSystem	inhibition / %
COc1ccc(-c2nn3ncccc3c2-c2ccnc(Nc3ccc4c(c3)OCCO4)n2)cc1	Serine/threonine-protein kinase TBK1 (Homo sapiens) (UniProt Q9UHD2)	-0.73
COC(=O)c1sc(-n2cnc3cc(OC)c(OC)cc32)cc1OCc1ccccc1C(F)(F)F	Serine/threonine-protein kinase TBK1 (Homo sapiens) (UniProt Q9UHD2)	3.44
N#Cc1c(NC(=O)c2ccc(F)cc2)sc2c1CCCC2	Serine/threonine-protein kinase TBK1 (Homo sapiens) (UniProt Q9UHD2)	0.78
Nc1ncc(-c2cccc(S(N)(=O)=O)c2)c2scc(-c3ccc(F)c(Cl)c3)c12	Serine/threonine-protein kinase TBK1 (Homo sapiens) (UniProt Q9UHD2)	3.75
COc1cc2ncn(-c3cc(OCc4ccccc4C(F)(F)F)c(C(=O)N(C)C)s3)c2cc1OC	Serine/threonine-protein kinase TBK1 (Homo sapiens) (UniProt Q9UHD2)	2.13
c1cc(-c2cnn3nc(N4CCOCC4)ccc23)nc(NC2CC2)n1	Serine/threonine-protein kinase TBK1 (Homo sapiens) (UniProt Q9UHD2)	3.02
CN1CCC(n2cnc(-c3ccc(F)cc3)c2-c2ccnc(N)n2)CC1	Serine/threonine-protein kinase TBK1 (Homo sapiens) (UniProt Q9UHD2)	-1.27
CCn1c(-c2nonc2N)nc2cnc(Oc3cccc(NC(=O)c4ccc(N(C)C)cc4)c3)cc21	Serine/threonine-protein kinase TBK1 (Homo sapiens) (UniProt Q9UHD2)	0.53
Fc1ccc(-c2nn3ncccc3c2-c2ccnc(Nc3ccc4c(c3)OCCO4)n2)cc1	Serine/threonine-protein kinase TBK1 (Homo sapiens) (UniProt Q9UHD2)	5.89
CC(=O)NCc1cccc(C#Cc2cncnc2Nc2ccc(OCc3cccc(F)c3)c(Cl)c2)c1	Serine/threonine-protein kinase TBK1 (Homo sapiens) (UniProt Q9UHD2)	-0.27
CNC(=O)c1cc(-c2ccc(F)cc2)cc(-c2ccc(S(=O)(=O)N3CCCC3)cc2)c1N	Serine/threonine-protein kinase TBK1 (Homo sapiens) (UniProt Q9UHD2)	0.38
CC(C)COC(=O)c1ccc2c(c1)/C(=C/Nc1ccc(S(N)(=O)=O)cc1)C(=O)N2	Serine/threonine-protein kinase TBK1 (Homo sapiens) (UniProt Q9UHD2)	38.1
CCn1cc(-c2ccnc3[nH]ccc23)c(-c2cccc(NC(=O)Nc3ccc(OCc4ccccc4)cc3)c2)n1	Serine/threonine-protein kinase TBK1 (Homo sapiens) (UniProt Q9UHD2)	-0.45
CCN1CCC(CC(=O)Nc2n[nH]c3nnc(-c4cccc(F)c4F)cc23)CC1	Serine/threonine-protein kinase TBK1 (Homo sapiens) (UniProt Q9UHD2)	1.12
COc1ccc(-c2cc3c(N)ncnc3o2)cc1	Serine/threonine-protein kinase TBK1 (Homo sapiens) (UniProt Q9UHD2)	0.41
Cc1cccc2c1NC(=O)/C2=N\Nc1ccc(S(N)(=O)=O)cc1	Serine/threonine-protein kinase TBK1 (Homo sapiens) (UniProt Q9UHD2)	2.84
CC1=C(C(=O)Nc2cc(Cl)c3[nH]ncc3c2)C(c2ccc(C(F)(F)F)cc2)CC(=O)N1 (stereo not drawn)	Serine/threonine-protein kinase TBK1 (Homo sapiens) (UniProt Q9UHD2)	2.77
NC(=O)c1sc(-n2cnc3ccc(C(F)(F)F)cc32)cc1OCc1ccccc1Br	Serine/threonine-protein kinase TBK1 (Homo sapiens) (UniProt Q9UHD2)	0.45
COc1cc(/C=N/Nc2ncnc3[nH]ncc23)ccc1O	Serine/threonine-protein kinase TBK1 (Homo sapiens) (UniProt Q9UHD2)	4.18
CS(=O)(=O)CCNCc1coc(-c2ccc3ncnc(Nc4ccc(OCc5ccccc5)cc4)c3c2)c1	Serine/threonine-protein kinase TBK1 (Homo sapiens) (UniProt Q9UHD2)	2.64
COc1cc2c(cc1Nc1nc(Nc3ccsc3C(N)=O)c3cc[nH]c3n1)N(C(=O)CN(C)C)CCC2(C)C	Serine/threonine-protein kinase TBK1 (Homo sapiens) (UniProt Q9UHD2)	11.3
N#Cc1c(NC(=O)CN2CCOCC2)sc2c1CCCC2	Serine/threonine-protein kinase TBK1 (Homo sapiens) (UniProt Q9UHD2)	1.76
O=C(O[C@H]1CN[C@H](C#Cc2cc3ncnc(Nc4ccc(Cc5ccccc5)cc4)c3s2)C1)N1CCOCC1	Serine/threonine-protein kinase TBK1 (Homo sapiens) (UniProt Q9UHD2)	-0.27
c1ccc(-c2nc3n(c2-c2ccc4c(c2)OCO4)CCC3)nc1	Serine/threonine-protein kinase TBK1 (Homo sapiens) (UniProt Q9UHD2)	1
CS(=O)(=O)CCNCc1ccc(-c2ccc3ncnc(Nc4ccc(OCc5ccccc5)c(C(F)(F)F)c4)c3c2)o1	Serine/threonine-protein kinase TBK1 (Homo sapiens) (UniProt Q9UHD2)	0.23
Cc1ccc2c(-c3ccnc(Nc4ccccc4)n3)c(-c3ccc(F)cc3)nn2n1	Serine/threonine-protein kinase TBK1 (Homo sapiens) (UniProt Q9UHD2)	1.85
O=C(Nc1n[nH]c2cc(-c3ccc(F)cc3)ccc12)C1CC1	Serine/threonine-protein kinase TBK1 (Homo sapiens) (UniProt Q9UHD2)	2.6
COc1ccc2c(-c3ccnc(Nc4cccc(OC(F)(F)F)c4)n3)cnn2n1	Serine/threonine-protein kinase TBK1 (Homo sapiens) (UniProt Q9UHD2)	7.22

###

target: Mitogen-activated protein kinase 3 (Homo sapiens); conditions: at 0.1 µM;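 further: each value is a mean inhibition figure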
Measured inhibition, listed per entry.

givenSmiles	readingUnit	inhibition
COc1ccc2[nH]c3c4[nH]c5ccc(OC)cc5c4c4c(c3c2c1)C(=O)NC4=O	%	4.93
COc1ccc(-c2cc3c(N)ncnc3o2)cc1	%	-1.53
Cc1cccc2c1NC(=O)/C2=N\Nc1ccc(S(N)(=O)=O)cc1	%	2.41
Fc1ccc(-c2nn3ncccc3c2-c2ccnc(Nc3ccc4c(c3)OCCO4)n2)cc1	%	5.61
Cc1cccc(Nc2ncc(-c3ccccc3)o2)c1	%	5.66
N#Cc1c(NC(=O)c2ccc(F)cc2)sc2c1CCCC2	%	-1.04
CS(=O)(=O)CCNCc1ccc(-c2ccc3ncnc(Nc4ccc(OCc5ccccc5)c(C(F)(F)F)c4)c3c2)o1	%	3.56
CC(C)COC(=O)c1ccc2c(c1)/C(=C/Nc1ccc(S(N)(=O)=O)cc1)C(=O)N2	%	1.07
CN1CCC(n2cnc(-c3ccc(F)cc3)c2-c2ccnc(N)n2)CC1	%	3.88
COc1ccc(-c2oc3ncnc(N)c3c2-c2ccc(NC(=O)Nc3cc(C(F)(F)F)ccc3F)cc2)cc1	%	3.48

###

molecular target: Leucine-rich repeat serine/threonine-protein kinase 2 (Homo sapiens) (UniProt Q5S007); settings: at 1 µM;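 further: mean percent inhibition of LRRK2 measured in the GSK PKIS kinase inhibitor set screen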
Sequence (Q5S007 whole entry): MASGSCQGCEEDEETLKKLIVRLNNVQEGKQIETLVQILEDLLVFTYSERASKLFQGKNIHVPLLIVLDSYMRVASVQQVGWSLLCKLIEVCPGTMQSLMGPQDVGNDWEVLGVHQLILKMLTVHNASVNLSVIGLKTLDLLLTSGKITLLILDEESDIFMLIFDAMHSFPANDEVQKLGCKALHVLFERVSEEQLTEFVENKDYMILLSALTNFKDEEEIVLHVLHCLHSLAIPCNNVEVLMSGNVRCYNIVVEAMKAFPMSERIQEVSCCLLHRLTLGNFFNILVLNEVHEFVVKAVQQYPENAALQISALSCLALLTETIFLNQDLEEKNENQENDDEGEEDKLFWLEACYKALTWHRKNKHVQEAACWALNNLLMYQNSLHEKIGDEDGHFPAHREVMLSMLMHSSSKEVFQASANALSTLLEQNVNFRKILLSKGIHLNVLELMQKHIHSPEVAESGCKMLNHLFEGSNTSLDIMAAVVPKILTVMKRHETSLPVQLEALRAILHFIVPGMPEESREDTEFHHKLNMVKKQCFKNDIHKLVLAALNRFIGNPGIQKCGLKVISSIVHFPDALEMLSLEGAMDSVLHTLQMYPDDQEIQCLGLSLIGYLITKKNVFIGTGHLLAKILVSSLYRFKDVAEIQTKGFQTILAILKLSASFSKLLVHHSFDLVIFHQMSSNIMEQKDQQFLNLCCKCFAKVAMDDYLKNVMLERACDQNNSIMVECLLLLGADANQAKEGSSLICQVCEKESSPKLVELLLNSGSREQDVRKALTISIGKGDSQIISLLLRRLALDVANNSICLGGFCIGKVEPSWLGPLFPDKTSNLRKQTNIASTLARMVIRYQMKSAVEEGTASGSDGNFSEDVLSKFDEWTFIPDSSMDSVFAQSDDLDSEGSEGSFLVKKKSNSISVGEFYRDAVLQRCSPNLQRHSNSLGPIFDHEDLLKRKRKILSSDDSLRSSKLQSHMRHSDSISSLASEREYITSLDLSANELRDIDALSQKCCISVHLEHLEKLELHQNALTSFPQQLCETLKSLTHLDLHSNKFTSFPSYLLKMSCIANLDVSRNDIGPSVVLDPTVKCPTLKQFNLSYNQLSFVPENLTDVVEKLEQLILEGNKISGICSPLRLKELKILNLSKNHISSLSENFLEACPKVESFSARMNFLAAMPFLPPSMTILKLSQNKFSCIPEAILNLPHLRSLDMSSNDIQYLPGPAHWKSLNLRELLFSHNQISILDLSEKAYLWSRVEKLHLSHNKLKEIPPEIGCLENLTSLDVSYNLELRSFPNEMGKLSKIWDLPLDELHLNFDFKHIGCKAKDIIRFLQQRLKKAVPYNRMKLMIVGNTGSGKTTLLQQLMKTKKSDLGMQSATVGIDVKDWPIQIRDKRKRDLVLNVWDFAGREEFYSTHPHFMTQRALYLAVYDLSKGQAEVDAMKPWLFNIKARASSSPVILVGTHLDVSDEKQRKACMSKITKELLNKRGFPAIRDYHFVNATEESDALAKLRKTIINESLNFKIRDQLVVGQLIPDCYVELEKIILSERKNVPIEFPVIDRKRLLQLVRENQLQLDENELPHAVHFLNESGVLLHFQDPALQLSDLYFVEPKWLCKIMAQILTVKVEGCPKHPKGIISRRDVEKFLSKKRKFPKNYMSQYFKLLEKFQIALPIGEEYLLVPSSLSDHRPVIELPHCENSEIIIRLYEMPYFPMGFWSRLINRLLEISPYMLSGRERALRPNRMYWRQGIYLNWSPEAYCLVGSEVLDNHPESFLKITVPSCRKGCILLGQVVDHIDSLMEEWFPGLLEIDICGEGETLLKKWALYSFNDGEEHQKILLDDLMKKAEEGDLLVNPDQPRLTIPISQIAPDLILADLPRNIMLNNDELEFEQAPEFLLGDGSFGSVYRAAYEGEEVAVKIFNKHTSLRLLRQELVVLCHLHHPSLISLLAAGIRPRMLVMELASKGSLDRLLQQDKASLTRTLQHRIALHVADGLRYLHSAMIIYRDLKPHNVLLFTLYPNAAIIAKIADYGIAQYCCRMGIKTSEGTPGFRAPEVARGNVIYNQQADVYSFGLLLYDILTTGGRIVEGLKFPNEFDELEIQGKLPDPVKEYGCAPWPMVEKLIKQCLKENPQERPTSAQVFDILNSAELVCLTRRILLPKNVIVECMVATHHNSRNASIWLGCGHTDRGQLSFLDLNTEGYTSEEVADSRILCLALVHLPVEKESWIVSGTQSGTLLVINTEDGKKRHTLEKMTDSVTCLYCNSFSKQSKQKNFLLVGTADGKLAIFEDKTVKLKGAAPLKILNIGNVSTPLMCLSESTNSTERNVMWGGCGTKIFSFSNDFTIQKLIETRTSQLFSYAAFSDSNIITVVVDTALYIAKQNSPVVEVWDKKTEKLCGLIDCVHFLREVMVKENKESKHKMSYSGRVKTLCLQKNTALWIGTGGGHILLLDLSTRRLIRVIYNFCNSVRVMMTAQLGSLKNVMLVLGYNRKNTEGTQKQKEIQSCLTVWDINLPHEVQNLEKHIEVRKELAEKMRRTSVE
observedProperty: inhibition (%)

givenSmiles	assayedSystem	reading
COc1ccc(CNC(=O)c2ccc(-c3cc(-c4nnc(C)o4)ccc3C)cc2)cc1	Leucine-rich repeat serine/threonine-protein kinase 2 (Homo sapiens) (UniProt Q5S007)	10.8
COc1cc(/C=N/Nc2ncnc3[nH]ncc23)ccc1O	Leucine-rich repeat serine/threonine-protein kinase 2 (Homo sapiens) (UniProt Q5S007)	17.5
CCNC(=O)O[C@H]1CN[C@H](C#Cc2cc3ncnc(Nc4ccc(OCc5cccc(F)c5)c(Cl)c4)c3s2)C1	Leucine-rich repeat serine/threonine-protein kinase 2 (Homo sapiens) (UniProt Q5S007)	4.18
Fc1cccc(COc2ccc(Nc3ncnc4sc(-c5ccco5)cc34)cc2Cl)c1	Leucine-rich repeat serine/threonine-protein kinase 2 (Homo sapiens) (UniProt Q5S007)	6.42
Fc1ccc(-c2nn3ccccc3c2-c2ccncc2)cc1	Leucine-rich repeat serine/threonine-protein kinase 2 (Homo sapiens) (UniProt Q5S007)	3.74
CC(C)COC(=O)c1ccc2c(c1)/C(=C/Nc1ccc(S(N)(=O)=O)cc1)C(=O)N2	Leucine-rich repeat serine/threonine-protein kinase 2 (Homo sapiens) (UniProt Q5S007)	22.7
CCN(CC)S(=O)(=O)c1ccc(OC)c(Nc2ncc(-c3ccccc3)o2)c1	Leucine-rich repeat serine/threonine-protein kinase 2 (Homo sapiens) (UniProt Q5S007)	5.16
CCCN1CCC(c2ccc(Nc3nc(Nc4cc(F)ccc4C(N)=O)c4cc[nH]c4n3)c(OC)c2)CC1	Leucine-rich repeat serine/threonine-protein kinase 2 (Homo sapiens) (UniProt Q5S007)	89.7
NC(=O)c1sc(-n2cnc3ccc(C(F)(F)F)cc32)cc1OCc1ccccc1Br	Leucine-rich repeat serine/threonine-protein kinase 2 (Homo sapiens) (UniProt Q5S007)	6.09
COc1ccc(-c2cc3c(N)ncnc3o2)cc1	Leucine-rich repeat serine/threonine-protein kinase 2 (Homo sapiens) (UniProt Q5S007)	3.63
CC(=O)Nc1cccc(C#Cc2cncnc2Nc2ccc(OCc3cccc(F)c3)c(Cl)c2)c1	Leucine-rich repeat serine/threonine-protein kinase 2 (Homo sapiens) (UniProt Q5S007)	7.3
COc1cc2c(cc1Nc1nc(Nc3ccsc3C(N)=O)c3cc[nH]c3n1)N(C(=O)CN(C)C)CCC2(C)C	Leucine-rich repeat serine/threonine-protein kinase 2 (Homo sapiens) (UniProt Q5S007)	98
O=C(Nc1n[nH]c2cc(-c3ccc(F)cc3)ccc12)C1CC1	Leucine-rich repeat serine/threonine-protein kinase 2 (Homo sapiens) (UniProt Q5S007)	5.22
